OBSERVATION_TYPE: melting point (°C)

COMPOUND: COc1cncc(-c2cccc(C3(c4ccc(OC(F)(F)F)cc4)N=C(N)N(C)C3=O)c2)c1 (centres unmarked) [Example 51]
ENDPOINT_UNIT: °C
RECORDED_NUMBER: 212
//
COMPOUND: COc1ccc(C2(c3cccc(-c4ccncc4)c3)N=C(N)N(C)C2=O)cc1C (centres unmarked) [Example 36]
ENDPOINT_UNIT: °C
RECORDED_NUMBER: 175
//
COMPOUND: COc1ccc(C2(c3ccc(F)c(-c4cncnc4)c3)N=C(N)N(C)C2=O)cc1C(F)(F)F (centres unmarked) [Example 56]
ENDPOINT_UNIT: °C
RECORDED_NUMBER: 115
//
COMPOUND: CN1C(=O)C(c2ccc(SC(F)(F)F)cc2)(c2ccc(F)c(-c3cccnc3F)c2)N=C1N (centres unmarked) [Example 93]
ENDPOINT_UNIT: °C
RECORDED_NUMBER: 95

* * *

Overview of recorded melting point for various compounds

COMPOUND: CN1C(=O)C(c2ccc(OC(F)F)cc2)(c2ccc(F)c(-c3cccnc3F)c2)N=C1N (centres unmarked) [Example 96]
melting point: 108 to 110 °C

COMPOUND: CN1C(=O)C(c2ccc(OC(F)(F)F)cc2)(c2ccc(Cl)c(-c3cncnc3)c2)N=C1N (centres unmarked) [Example 49]
melting point: 124 to 129 °C

COMPOUND: CN1C(=O)C(c2ccc(SC(F)(F)F)cc2)(c2ccc(F)c(-c3cncnc3)c2)N=C1N (centres unmarked) [Example 94]
melting point: 183 °C

COMPOUND: Cc1cc(C2(c3cccc(-c4cncnc4)c3)N=C(N)N(C)C2=O)ccc1O (centres unmarked) [Example 115]
melting point: 168 to 170 °C

COMPOUND: CN1C(=O)C(c2ccc(OCCF)cc2)(c2cccc(-c3ccc(F)nc3)c2)N=C1N (centres unmarked) [Example 111]
melting point: 100 °C

COMPOUND: Cc1cc(C2(c3ccc(F)c(-c4cncnc4)c3)N=C(N)N(C)C2=O)ccc1OCCF (centres unmarked) [Example 113]
melting point: 108 to 110 °C

COMPOUND: CN1C(=O)C(c2cccc(OC(F)(F)F)c2)(c2cccc(-c3cccnc3)c2)N=C1N (centres unmarked) [Example 25]
melting point: 198 °C

COMPOUND: CN1C(=O)C(c2ccc(OC(F)F)cc2)(c2ccc(F)c(-c3cncnc3)c2)N=C1N (centres unmarked) [Example 97]
melting point: 103 to 105 °C

* * *

Overview of recorded IC50 for various compounds
- STUDY_TARGET: human BACE1 (Homo sapiens)
- Sequence (P56817 46-501): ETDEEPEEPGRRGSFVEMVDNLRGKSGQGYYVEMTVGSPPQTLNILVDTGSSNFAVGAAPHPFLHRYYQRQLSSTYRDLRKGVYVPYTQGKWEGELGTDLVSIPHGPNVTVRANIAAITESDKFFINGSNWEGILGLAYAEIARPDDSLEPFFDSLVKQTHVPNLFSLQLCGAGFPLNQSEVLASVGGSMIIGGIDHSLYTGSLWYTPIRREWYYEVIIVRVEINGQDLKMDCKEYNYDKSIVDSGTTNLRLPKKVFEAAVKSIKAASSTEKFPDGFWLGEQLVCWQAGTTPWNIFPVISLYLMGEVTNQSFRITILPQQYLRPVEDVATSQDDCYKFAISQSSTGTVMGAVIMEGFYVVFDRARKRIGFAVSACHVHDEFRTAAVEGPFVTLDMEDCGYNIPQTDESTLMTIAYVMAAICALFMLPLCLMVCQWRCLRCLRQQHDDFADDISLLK
- ASSAY_SUMMARY: Fluorescent kinetic assay, inhibition of BACE1 (WABC-6 peptide substrate)
- Format: biochemical
- EXPERIMENTAL_PARAMETERS: 10 nM enzyme, 25 μM substrate WABC-6, pH 4.5, room temperature; read-out: IC50 (μM) BACE1

COMPOUND: COc1ccc(C2(c3ccc(F)c(-c4cncnc4)c3)N=C(N)N(C)C2=O)cc1 (centres unmarked)
IC50: 0.01 to 0.1 µM
//
COMPOUND: COc1ccc(C2(c3cccc(-c4ccncc4)c3)N=C(N)N(C)C2=O)cc1C (centres unmarked)
IC50: 0.01 to 0.1 µM
//
COMPOUND: CN1C(=O)C(c2ccc(OCCF)c(OCCF)c2)(c2ccc(F)c(-c3cccnc3F)c2)N=C1N (centres unmarked)
IC50: 0.01 to 0.1 µM
//
COMPOUND: CN1C(=O)C(c2ccc(OC(F)(F)F)cc2)(c2ccc(F)c(-c3cncc(F)c3)c2)N=C1N (centres unmarked)
IC50: 0.11 to 1 µM
//
COMPOUND: COc1ccc(C2(c3ccc(F)c(-c4cnccc4F)c3)N=C(N)N(C)C2=O)cc1 (centres unmarked)
IC50: 0.01 to 0.1 µM
//
COMPOUND: COc1ccc([C@]2(c3ccc(F)c(-c4cnccc4F)c3)N=C(N)N(C)C2=O)cc1 [Example 143B]
IC50: 0.01 to 0.1 µM
//
COMPOUND: CN1C(=O)[C@](c2ccc(OC(F)F)cc2)(c2cccc(-c3ccc(F)nc3)c2)N=C1N [Example 135A]
IC50: > 1 µM
//
COMPOUND: CN1C(=O)C(c2ccc(OC(F)(F)F)cc2)(c2cccc(-c3cncnc3)c2F)N=C1N (centres unmarked)
IC50: > 1 µM

* * *

Overview of recorded melting point for various compounds

COMPOUND: CCOC(=O)COc1ccc(C2(c3cccc(-c4cncnc4)c3)N=C(N)N(C)C2=O)cc1C (stereo not shown)
melting point: 105 to 107 °C
//
COMPOUND: CN1C(=O)C(c2ccc(OCCF)cc2)(c2ccc(F)c(-c3cccnc3F)c2)N=C1N (stereo not shown)
melting point: 135 °C
//
COMPOUND: Cc1cc(C2(c3cccc(-c4cncnc4)c3)N=C(N)N(C)C2=O)ccc1OCCF (stereo not shown)
melting point: 108 to 110 °C
//
COMPOUND: CCCOc1ccc(C2(c3cccc(-c4cncnc4)c3)N=C(N)N(C)C2=O)cc1C (stereo not shown)
melting point: 102 to 104 °C

* * *

- STUDY_TARGET: human BACE1 (Homo sapiens)
- ASSAY_SUMMARY: Fluorescent kinetic assay, inhibition of BACE1 (WABC-6 peptide substrate);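 further: fluorescence monitored at 320 nm excitation and 420 nm emission every 40 s over 30 min, with the substrate cleavage rate taken from the linear slope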
- Type: biochemical
- EXPERIMENTAL_PARAMETERS: 10 nM enzyme, 25 μM substrate WABC-6, pH 4.5, room temperature; read-out: IC50 (μM) BACE1
OBSERVATION_TYPE: IC50

COMPOUND: CCCOc1cc(C2(c3cccc(-c4cccnc4)c3)N=C(N)N(C)C2=O)ccc1OC (stereo not shown)
OBSERVATION_TYPE: IC50
RESULT: 0.01 to 0.1 µM

COMPOUND: COc1ccc([C@@]2(c3ccc(F)c(-c4cnccc4F)c3)N=C(N)N(C)C2=O)cc1 [Example 143A]
OBSERVATION_TYPE: IC50
RESULT: > 1 µM

COMPOUND: CN1C(=O)[C@](c2ccc(OC(F)F)cc2)(c2ccc(F)c(-c3cccnc3F)c2)N=C1N [Example 133A]
OBSERVATION_TYPE: IC50
RESULT: 0.11 to 1 µM

COMPOUND: CCOc1ccc([C@]2(c3cccc(-c4cccnc4F)c3)N=C(N)N(C)C2=O)cc1OCC [Example 103B]
OBSERVATION_TYPE: IC50
RESULT: 0.01 to 0.1 µM

COMPOUND: CN1C(=O)C(c2ccc(OC(F)(F)F)cc2)(c2ccc(Cl)c(-c3cncnc3)c2)N=C1N (stereo not shown)
OBSERVATION_TYPE: IC50
RESULT: 0.11 to 1 µM

COMPOUND: CCN1C(=O)C(c2ccc(OC(F)F)cc2)(c2ccc(F)c(-c3cncc(F)c3)c2)N=C1N (stereo not shown)
OBSERVATION_TYPE: IC50
RESULT: 0.11 to 1 µM

COMPOUND: CN1C(=O)[C@@](c2ccc(OC(F)F)cc2)(c2cccc(-c3ccc(F)nc3)c2)N=C1N [Example 135B]
OBSERVATION_TYPE: IC50
RESULT: 0.01 to 0.1 µM

COMPOUND: CCOc1ccc([C@]2(c3ccc(F)c(-c4cccnc4F)c3)N=C(N)N(C)C2=O)cc1OCC [Example 136A]
OBSERVATION_TYPE: IC50
RESULT: 0.01 to 0.1 µM

COMPOUND: COc1ccc([C@@]2(c3ccc(F)c(-c4cncnc4)c3)N=C(N)N(C)C2=O)cc1C(F)(F)F [Example 107B]
OBSERVATION_TYPE: IC50
RESULT: > 1 µM

COMPOUND: CN1C(=O)C(c2ccc(OC(F)(F)F)c(F)c2)(c2ccc(F)c(-c3cncc(F)c3)c2)N=C1N (stereo not shown)
OBSERVATION_TYPE: IC50
RESULT: 0.11 to 1 µM

COMPOUND: CN1C(=O)C(c2ccc(OC(F)F)cc2)(c2ccc(F)c(-c3cc(F)cnc3F)c2)N=C1N (stereo not shown)
OBSERVATION_TYPE: IC50
RESULT: 0.01 to 0.1 µM

COMPOUND: COc1ccc(C2(c3ccc(F)c(-c4cccnc4F)c3)N=C(N)N(C)C2=O)cc1C(F)(F)F (stereo not shown)
OBSERVATION_TYPE: IC50
RESULT: 0.01 to 0.1 µM

COMPOUND: Cc1cc(C2(c3cccc(-c4cccnc4)c3)N=C(N)N(C)C2=O)ccc1O (stereo not shown)
OBSERVATION_TYPE: IC50
RESULT: 0.01 to 0.1 µM

COMPOUND: Cc1cc(C2(c3cccc(-c4cncnc4)c3)N=C(N)N(C)C2=O)ccc1OCc1ccccc1 (stereo not shown)
OBSERVATION_TYPE: IC50
RESULT: 0.01 to 0.1 µM

COMPOUND: NC1=NC(c2ccc(OC(F)(F)F)cc2)(c2ccc(F)c(-c3cncnc3)c2)C(=O)N1CCF (stereo not shown)
OBSERVATION_TYPE: IC50
RESULT: 0.11 to 1 µM

COMPOUND: CN1C(=O)C(c2ccc(OC(F)(F)F)c(Cl)c2)(c2ccc(F)c(-c3cccnc3)c2)N=C1N (stereo not shown)
OBSERVATION_TYPE: IC50
RESULT: 0.01 to 0.1 µM
